tested on: human renal cancer cell line 786-0; assay: Antiproliferative effect on the 786-0 RCC cell line (MTT assay); type: cell-based; details: Homo sapiens, 786-0, 786-0 cells, incubation 48 h to 96 h
Counter-ions that a name gives are not always drawn. Starred links: 1 amine or outer side, 2 acyl side, 3 side chain; linkers in the order of their positions; H or OH if unused. Non-standard residues stand in square brackets, D forms with d. Residues, ends and D or L forms follow the SMILES beside them. *: point of attachment. NMeVal(N-(CH2)3COOH) = CC(C)[C@@H](C(=O)*)N(C)CCCC(=O)O; Dolaproine = CO[C@@H]([C@@H]1CCCN1)[C@@H](C)C(=O)O; X1 = O=C([C@]1(N[*:1])C[C@@H]1c1ccccc1)[*:2]; Dil = CC[C@H](C)[C@H](NC)[C@@H](CC(=O)O)OC; Oxazinan2yl(1,2) = C1CCN(*)OC1; NMeV = CN[C@H](C(=O)O)C(C)C; X6 = C1=CC2CCC1ON2*
Listed here: items and their measured pIC50.
The scale used: pIC50 is minus the common logarithm of the concentration in molar units.

Examples with their reported pIC50 follow.
INSERT INTO measurements (compound, measurementlabel, experimentalresult) VALUES
  ('CC[C@H](C)[C@@H]([C@@H](CC(=O)N1CCC[C@H]1[C@H](OC)[C@@H](C)C(=O)N[C@@]1(C(=O)N2CCCCO2)C[C@@H]1c1ccccc1)OC)N(C)C(=O)[C@@H](NC(=O)[C@@H](NC)C(C)C)C(C)C [Example 17, trifluoroacetic acid salt] (H-[NMeV]V[Dil][Dolaproine][X1]-{Oxazinan2yl(1,2)})', 'pIC50', 8.40),
  ('CC[C@H](C)[C@@H]([C@@H](CC(=O)N1CCC[C@H]1[C@H](OC)[C@@H](C)C(=O)N[C@@H](Cc1ccccc1)C(=O)N1CCCCO1)OC)N(C)C(=O)[C@@H](NC(=O)[C@H](C(C)C)N(C)CCCC(=O)O)C(C)C [Example 24] ({NMeVal(N-(CH2)3COOH)}-V[Dil][Dolaproine]F-{Oxazinan2yl(1,2)})', 'pIC50', 8.30),
  ('CC[C@H](C)[C@@H]([C@@H](CC(=O)N1CCC[C@H]1[C@H](OC)[C@@H](C)C(=O)N[C@@H](Cc1ccccc1)C(=O)N1OC2C=CC1CC2)OC)N(C)C(=O)[C@@H](NC(=O)[C@@H](NC)C(C)C)C(C)C (stereo partly drawn) [Example 6, trifluoroacetic acid salt] (H-[NMeV]V[Dil][Dolaproine]F-X6)', 'pIC50', 9.30),
  ('CC[C@H](C)[C@@H]([C@@H](CC(=O)N1CCC[C@H]1[C@H](OC)[C@@H](C)C(=O)N[C@@]1(C(=O)N2CCCCO2)C[C@@H]1c1ccccc1)OC)N(C)C(=O)[C@@H](NC(=O)[C@H](C(C)C)N(C)CCCC(=O)O)C(C)C', 'pIC50', 7.96);

Name the reported pIC50 value associated with the compound CC[C@H](C)[C@@H]([C@@H](CC(=O)N1CCC[C@H]1[C@H](OC)[C@@H](C)C(=O)N[C@@H](Cc1ccccc1)C(=O)N1CCCCO1)OC)N(C)C(=O)[C@@H](NC(=O)[C@@H](NC)C(C)C)C(C)C [Example 1, trifluoroacetic acid salt] (H-[NMeV]V[Dil][Dolaproine]F-{Oxazinan2yl(1,2)})
8.40

Give the measured pIC50 of CC[C@H](C)[C@@H]([C@@H](CC(=O)N1CCC[C@H]1[C@H](OC)[C@@H](C)C(=O)N[C@@H](Cc1c[nH]c2ccccc12)C(=O)N1CCCCO1)OC)N(C)C(=O)[C@@H](NC(=O)[C@@H](NC)C(C)C)C(C)C [Example 9, trifluoroacetic acid salt] (H-[NMeV]V[Dil][Dolaproine]W-{Oxazinan2yl(1,2)}) .
8.52
